# key: entry, value: hill_tp (Hill model top)
STUDY_TARGET: human AR (Homo sapiens, UniProt P10275)
TEST_DETAILS: AR2 assay, antagonist mode: disruption of R1881 (10 nM)-induced AR homodimerization in HepG2-AR2 cells
Format: cell-based
Give the value as a plain number.

CCC(=O)O[C@H]1CC[C@H]2[C@@H]3CCC4=CC(=O)CC[C@]4(C)[C@H]3CC[C@]12C [Testosterone propionate] :: 100.853
CCCC1COC(Cn2cncn2)(c2ccc(Cl)cc2Cl)O1 (centres unmarked) [Propiconazole] :: 116.132
CC1(C)C(C=C(Cl)Cl)C1C(=O)OCc1cccc(Oc2ccccc2)c1 (centres unmarked) [Permethrin] :: 63.3496
C[C@]12CC[C@H]3C(=CCc4cc(O)ccc43)[C@@H]1CCC2=O [Equilin] :: 92.4898

Attention now shifts to the item below.
// hill_tp (Hill model top) value for CCCCNC(=O)n1c(NC(=O)OC)nc2ccccc21 [Benomyl] : 30.7847

====

STUDY_TARGET: human AR (Homo sapiens)
TEST_DETAILS: AR2 assay, antagonist mode: disruption of R1881 (10 nM)-induced AR homodimerization in HepG2-AR2 cells
Type: cell-based
CONDITION_PARAMETERS: spid AR_antagonist; sheet antagonist_fits
# key: entry, value: max_med (maximum median response)
Give the value as a plain number.

These solved cases illustrate the format of a correct answer.
C[C@]12CC[C@@H]3c4ccc(O)cc4CC[C@H]3[C@@H]1CCC2=O [Estrone] :: 84.5958
O=[N+]([O-])c1ccc(O)c([N+](=O)[O-])c1 [2,4-Dinitrophenol] :: 41.2653

Attention now shifts to the item below.
// max_med (maximum median response) value for CC(C)(c1ccc(O)cc1)c1ccc(O)cc1 [Bisphenol A] : 101.007

====

STUDY_TARGET: human AR (Homo sapiens, UniProt P10275)
TEST_DETAILS: cell-based
Set-up: species or system AR2 cells (HepG2-AR2); NanoLuc complementation AR homodimerization, antagonist mode, loss of agonist-induced luminescence, AC50 by Hill fit
CONDITION_PARAMETERS: hill_ga, spid=Bgal; antagonist mode, 10 nM agonist stimulus, 18 h, no CYP expressed
Decision: AC50 beneath 10 µM gives Y; AC50 meeting or exceeding 10 µM gives N.

Use the examples below as a reference point.
O=[N+]([O-])c1ccc(O)c([N+](=O)[O-])c1 :: N
CCCC1COC(Cn2cncn2)(c2ccc(Cl)cc2Cl)O1 (stereo not drawn) :: N
CCCN(CCC)c1c([N+](=O)[O-])cc(C(F)(F)F)cc1[N+](=O)[O-] :: N
C[C@]12CC[C@H]3C(=CCc4cc(O)ccc43)[C@@H]1CCC2=O :: Y
CC1(C)C(C=C(Cl)Cl)C1C(=O)OCc1cccc(Oc2ccccc2)c1 (stereo not drawn) :: N
O=c1c(-c2ccc(O)cc2)coc2cc(O)cc(O)c12 :: Y
CC1(C)[C@H](C(=O)O[C@H](C#N)c2cccc(Oc3ccccc3)c2)[C@@H]1C=C(Br)Br :: N

// next entry
Below 10 µM on AC50? Entry O=C1C[C@@H](c2ccc(O)cc2)Oc2cc(O)cc(O)c21
N

====

STUDY_TARGET: human AR (Homo sapiens, UniProt P10275)
Sequence (P10275 1-920) 1: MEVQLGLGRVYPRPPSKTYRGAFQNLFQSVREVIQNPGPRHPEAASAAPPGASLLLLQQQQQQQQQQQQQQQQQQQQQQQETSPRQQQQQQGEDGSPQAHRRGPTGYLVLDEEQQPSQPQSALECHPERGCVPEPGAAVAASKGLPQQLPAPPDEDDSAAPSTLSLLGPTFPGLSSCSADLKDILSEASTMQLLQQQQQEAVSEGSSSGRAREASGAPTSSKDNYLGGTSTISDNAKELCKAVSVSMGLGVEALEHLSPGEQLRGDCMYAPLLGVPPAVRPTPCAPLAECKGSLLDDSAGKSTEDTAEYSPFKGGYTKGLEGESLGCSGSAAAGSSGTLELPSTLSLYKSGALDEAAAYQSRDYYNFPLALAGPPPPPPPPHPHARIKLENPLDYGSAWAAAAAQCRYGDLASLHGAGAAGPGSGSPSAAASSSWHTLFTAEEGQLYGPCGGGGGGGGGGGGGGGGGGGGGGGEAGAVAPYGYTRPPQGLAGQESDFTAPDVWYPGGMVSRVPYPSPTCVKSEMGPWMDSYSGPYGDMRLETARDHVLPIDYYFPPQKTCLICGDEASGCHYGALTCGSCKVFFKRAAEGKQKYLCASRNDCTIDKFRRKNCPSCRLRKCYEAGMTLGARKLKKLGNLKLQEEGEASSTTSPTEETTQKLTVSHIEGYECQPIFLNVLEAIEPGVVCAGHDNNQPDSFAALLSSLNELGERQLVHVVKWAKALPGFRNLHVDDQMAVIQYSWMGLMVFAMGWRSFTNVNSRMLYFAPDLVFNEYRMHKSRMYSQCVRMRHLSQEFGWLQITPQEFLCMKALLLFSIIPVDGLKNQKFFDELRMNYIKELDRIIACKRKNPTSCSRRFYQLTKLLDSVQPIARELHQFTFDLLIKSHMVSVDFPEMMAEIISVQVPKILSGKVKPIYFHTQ
Sequence (P10275 1-920) 2: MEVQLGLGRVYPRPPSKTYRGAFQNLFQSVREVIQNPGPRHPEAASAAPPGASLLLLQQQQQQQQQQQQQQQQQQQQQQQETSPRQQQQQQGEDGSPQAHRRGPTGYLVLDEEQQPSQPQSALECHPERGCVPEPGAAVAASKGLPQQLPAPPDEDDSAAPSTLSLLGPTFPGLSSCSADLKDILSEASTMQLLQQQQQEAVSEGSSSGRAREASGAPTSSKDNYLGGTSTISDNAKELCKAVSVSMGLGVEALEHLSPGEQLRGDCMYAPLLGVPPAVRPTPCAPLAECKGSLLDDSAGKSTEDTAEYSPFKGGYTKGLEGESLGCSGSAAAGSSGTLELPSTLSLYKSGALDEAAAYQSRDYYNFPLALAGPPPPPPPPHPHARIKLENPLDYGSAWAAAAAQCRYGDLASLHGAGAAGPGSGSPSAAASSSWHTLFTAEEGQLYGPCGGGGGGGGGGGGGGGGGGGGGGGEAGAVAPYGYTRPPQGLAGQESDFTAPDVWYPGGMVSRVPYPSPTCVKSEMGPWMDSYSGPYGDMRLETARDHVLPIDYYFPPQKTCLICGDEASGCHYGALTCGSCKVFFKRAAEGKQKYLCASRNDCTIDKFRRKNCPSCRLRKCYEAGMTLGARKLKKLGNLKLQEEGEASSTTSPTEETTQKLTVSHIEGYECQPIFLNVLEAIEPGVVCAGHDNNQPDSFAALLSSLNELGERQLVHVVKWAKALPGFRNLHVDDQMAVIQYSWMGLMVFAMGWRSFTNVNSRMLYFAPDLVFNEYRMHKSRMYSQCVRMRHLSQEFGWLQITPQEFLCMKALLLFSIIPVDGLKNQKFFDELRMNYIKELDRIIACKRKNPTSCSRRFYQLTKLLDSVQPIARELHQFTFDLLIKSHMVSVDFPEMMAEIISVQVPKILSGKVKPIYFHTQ
TEST_DETAILS: AR2 assay, antagonist mode: disruption of R1881 (10 nM)-induced AR homodimerization in HepG2-AR2 cells
Assay type: cell-based
CONDITION_PARAMETERS: spid AR_antagonist; sheet antagonist_fits
Where a name gives a salt, the structure may show the parent alone.
Lab note: compare max_med (maximum median response) against 40. Equal or greater, write Condition met. Smaller, write Condition not met.

CNC(=O)Oc1cccc2c1OC(C)(C)C2 :: Condition not met
C[C@H]1CCCC(=O)CCC/C=C/c2cc(O)cc(O)c2C(=O)O1 :: Condition met
O=c1c(-c2ccc(O)cc2)coc2cc(O)ccc12 :: Condition met
CCCSP(=O)(OCC)SCCC :: Condition not met

Is reported max_med (maximum median response) greater than or equal to 40 here: O=C(c1ccc(O)cc1O)c1ccc(O)cc1O [2,2',4,4'-Tetrahydroxybenzophenone]
Condition met

Is reported max_med (maximum median response) greater than or equal to 40 here: CCOP(=S)(OCC)Oc1nc(Cl)c(Cl)cc1Cl
Condition met

Is reported max_med (maximum median response) greater than or equal to 40 here: C[C@]12CC[C@@H]3c4ccc(O)cc4C[C@@H](CCCCCCCCC[S+]([O-])CCCC(F)(F)C(F)(F)F)[C@H]3[C@@H]1CC[C@@H]2O (stereo partly shown)
Condition not met

Is reported max_med (maximum median response) greater than or equal to 40 here: CCN(CC)CCOc1ccc(/C(=C(/Cl)c2ccccc2)c2ccccc2)cc1 [Enclomiphene hydrochloride]
Condition met

Is reported max_med (maximum median response) greater than or equal to 40 here: CCN(CC)CCOc1ccc(C(=C(Cl)c2ccccc2)c2ccccc2)cc1 [Clomiphene citrate]
Condition met

Data origin: paper PMC10112521
